Target: CB1-receptor (UniProt P20272)
Test: binding of the pyrazoline compounds to CB1-receptors (Pharmacological Methods, Part I)
Parameters: IC50; species or system human or rat
Conditions: radioligand [3H]-CP55940, read-out: IC50
Procedure: I. In-vitro Determination of Affinity to CB1/CB2-Receptors The in-vitro determination of the affinity of the inventive 4-substituted pyrazoline compounds to CB1/CB2-Rezeptors is carried out as described in the publication of Ruth A. Ross, Heather C. […] Binding affinity to CB1 receptor was evaluated according to a modification of the method described by Govaerts et al., Eur J Pharmac Sci 23, 233-243 (2004). […]
Structures can show the parent of a compound that is named as a salt.
readout.kind: pIC50
A value of pIC50 is the negative decimal logarithm of a concentration given in moles per litre.

molecule | target.or.system | pIC50
C[C@@H]1C(C(=O)N[C@H]2CCCC[C@@H]2O)=NN(c2ccc(Cl)cc2Cl)[C@@H]1c1ccc(Cl)cc1 (single isomer, unassigned) | CB1-receptor (UniProt P20272) | 7.16
C[C@H]1C(C(=O)NN2CC3CCCC3C2)=NN(c2ccc(Cl)cc2Cl)[C@H]1c1ccc(Cl)cc1 (relative stereo) [Example 108, hydrochloride] | CB1-receptor (UniProt P20272) | 7.50
C[C@H]1C(C(=O)NC2CCCCCC2)=NN(c2ccc(Cl)cc2Cl)[C@H]1c1ccc(Br)cc1 (relative stereo) | CB1-receptor (UniProt P20272) | 7.52
C[C@@H]1C(C(=O)NN2CCCCC2)=NN(c2ccc(Cl)cc2Cl)[C@H]1c1ccc(Cl)cc1 (relative stereo) | CB1-receptor (UniProt P20272) | 7.10
COc1ccc([C@@H]2[C@H](C)C(C(=O)NN3CCc4ccccc43)=NN2c2ccc(Cl)cc2Cl)cc1 (relative stereo) | CB1-receptor (UniProt P20272) | 7.72

Req: Tell me pIC50 reported for C[C@H]1C(C(=O)N2CCN(C3CCCCC3)CC2)=NN(c2ccc(Cl)cc2Cl)[C@H]1c1ccc(Cl)cc1 (relative stereo)
Resp: 6.70

Req: Look up and state reported pIC50 for C[C@H]1C(C(=O)NN2CCCCCC2)=NN(c2ccc(Cl)cc2Cl)[C@H]1c1ccc(F)cc1.Cl (stereo in doubt) [Example 227, hydrochloride]
Resp: 6.91

Req: Provide only the value of recorded pIC50 for CC1CCCCC1NC(=O)C1=NN(c2ccc(Cl)cc2Cl)[C@H](c2ccc(Cl)cc2)[C@@H]1C (relative stereo)
Resp: 7.53

---

Biological target: CB1-receptor (UniProt P20272)
Assay: binding of the pyrazoline compounds to CB1-receptors (Pharmacological Methods, Part I)
Design: IC50; species or system human or rat
Settings: radioligand [3H]-CP55940, read-out: IC50
Where a name gives a salt, the structure may show the parent alone.
readout.kind: pIC50
pIC50 is a log-scale quantity: -log10 of the concentration expressed in molar.

compound | pIC50
CC1CCCC(C)N1NC(=O)C1=NN(c2ccc(Cl)cc2Cl)[C@H](c2ccc(Cl)cc2)[C@@H]1C (relative stereo) | 7.22
C[C@@H]1C(C(=O)NN2CCCCC2)=NN(c2ccc(Cl)cc2Cl)[C@H]1c1ccc(Cl)s1 (relative stereo) [Example 426, hydrochloride] | 6.55
C[C@H]1C(C(=O)NC2CCCCCC2)=NN(c2ccc(Cl)cc2Cl)[C@H]1c1ccc(F)cc1 (relative stereo) | 6.95

Req: Determine its reported pIC50: C[C@@H]1C(C(=O)NC2CCCCCCC2)=NN(c2ccc(Cl)cc2Cl)[C@@H]1c1ccc(Cl)cc1 (relative stereo)
Resp: 7.29

Req: Provide one value: measured pIC50 of CC1CCCC(NC(=O)C2=NN(c3ccc(Cl)cc3Cl)[C@H](c3ccc(Cl)cc3)[C@@H]2C)C1 (relative stereo)
Resp: 7.34
